system: MS2 coat protein; experiment: apparent KD of MS2 coat protein, switch OFF state (with FMN for OFF switches, without FMN for ON switches); designed switch direction (-1 OFF switch, 1 ON switch): 1; higher = weaker reporter binding; settings: FMN input: 0 or 200 uM; Eterna round: R93 (includes R88 designs)
readout-type: apparent KD of MS2 coat protein (nM)
Provide the reading as a plain figure in nM.

Known apparent KD of MS2 coat protein results, listed for orientation:
- item-sequence: "UAACAACAUGAGGAUCACCCAUGUCAAAUAAAUCGAGGAUAUGGGACGCAAGACGUCUUACCAGAAGGCGAAACAA [Leoratin]"
  apparent KD of MS2 coat protein (nM): 70.9
- item-sequence: "AUAAUAAUAAGGUAGGAUAUGCUAAAGUAAACAUGAGGAUCACCCAUGUAAAGAAAAAAACUCAUGUAGAAGGGCCAGAAAUAAA [moonwalk 4]"
  apparent KD of MS2 coat protein (nM): 71.5

Need apparent KD of MS2 coat protein, item AAUAGACAUGAGGAUCACCCAUGUAGAAUUAUGGGAGGAUAUACAAAGACGAGAGUCAGAGUAGAAGGCCUAGGAA [salish99-ss1-148]
71.5
